- target.entity: UniProt:Q12809
- Sequence (Q12809 whole entry): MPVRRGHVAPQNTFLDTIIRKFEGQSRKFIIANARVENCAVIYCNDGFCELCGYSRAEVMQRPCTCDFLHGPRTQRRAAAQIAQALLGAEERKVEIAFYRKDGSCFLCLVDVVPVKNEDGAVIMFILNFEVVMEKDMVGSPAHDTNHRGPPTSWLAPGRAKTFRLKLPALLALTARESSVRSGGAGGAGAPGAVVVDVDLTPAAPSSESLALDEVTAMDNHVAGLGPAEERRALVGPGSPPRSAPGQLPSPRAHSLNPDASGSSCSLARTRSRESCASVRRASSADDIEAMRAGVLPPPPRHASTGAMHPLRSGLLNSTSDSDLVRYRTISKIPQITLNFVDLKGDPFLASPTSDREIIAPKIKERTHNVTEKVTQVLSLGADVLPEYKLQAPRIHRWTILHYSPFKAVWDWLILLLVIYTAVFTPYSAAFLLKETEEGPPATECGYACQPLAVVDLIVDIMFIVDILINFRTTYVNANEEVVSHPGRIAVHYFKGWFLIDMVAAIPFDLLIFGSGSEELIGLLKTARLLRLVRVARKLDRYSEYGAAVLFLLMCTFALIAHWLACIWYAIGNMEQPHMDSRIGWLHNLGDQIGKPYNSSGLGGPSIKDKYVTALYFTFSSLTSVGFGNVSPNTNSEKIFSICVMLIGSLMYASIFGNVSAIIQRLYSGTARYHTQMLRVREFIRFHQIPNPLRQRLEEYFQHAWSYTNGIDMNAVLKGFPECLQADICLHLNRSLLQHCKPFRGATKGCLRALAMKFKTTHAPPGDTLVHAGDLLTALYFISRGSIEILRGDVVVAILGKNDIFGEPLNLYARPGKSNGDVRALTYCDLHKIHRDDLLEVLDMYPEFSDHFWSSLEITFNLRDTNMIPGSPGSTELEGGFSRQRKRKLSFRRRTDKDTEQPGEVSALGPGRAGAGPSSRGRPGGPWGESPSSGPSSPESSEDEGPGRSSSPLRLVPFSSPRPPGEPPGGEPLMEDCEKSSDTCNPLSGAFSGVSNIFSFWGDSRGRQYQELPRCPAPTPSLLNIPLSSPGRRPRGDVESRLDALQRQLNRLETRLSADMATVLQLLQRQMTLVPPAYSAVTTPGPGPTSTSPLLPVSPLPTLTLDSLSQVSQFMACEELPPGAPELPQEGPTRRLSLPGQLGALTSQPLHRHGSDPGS
- measurement.protocol: hERG Manual Patch Clamp Assay
- Assay type: cell-based
- study.conditions: human, HEK 293 cells stably expressing hERG channels, pH 7.4, 1 μM, read-out: hERG EP IC50 (% Inhibition at 1 μM)
Overview of recorded inhibition at 1 µM for various compounds

compound	inhibition at 1 µM / %
Cc1c(C(O)CN2CCc3nc(N4CCc5c(C#N)cccc54)ncc3C2)ccc2c1COC2=O (single isomer, unassigned) [Example 65-I]	56
Cc1c(C(O)CN2CCc3nc(-n4ccc5ncccc54)ncc3C2)ccc2c1COC2=O (single isomer, unassigned) [Example 36-I]	12
Cc1c(C(O)CN2CCc3nc(-n4ncc5ncccc54)ncc3C2)ccc2c1COC2=O (single isomer, unassigned) [Example 41-I]	11
Cc1c(C(O)CN2CCc3nc(-n4nc(C#N)c5ccccc54)ncc3C2)ccc2c1COC2=O (single isomer, unassigned) [Example 60-I]	92
Cc1c(C(O)CN2CCc3nc(Nc4ccc(C#N)c(F)c4)ncc3C2)ccc2c1COC2=O (single isomer, unassigned) [Example 28-I]	91
Cc1cn(-c2ncc3c(n2)CCN(CC(O)c2ccc4c(c2C)COC4=O)C3)cn1 (single isomer, unassigned) [Example 58-I]	9
Cc1c(C(O)CN2CCc3cc(Nc4ccc(C#N)c(F)c4)ccc3C2)ccc2c1COC2=O (single isomer, unassigned) [Example 32-I]	100
Cc1c(C(O)CN2CCc3nc(-n4ccc5cc(C#N)ccc54)ncc3C2)ccc2c1COC2=O (single isomer, unassigned) [Example 16-I]	25
Cc1c(C(O)CN2CCc3nc(-n4cc(C#N)cn4)ncc3C2)ccc2c1COC2=O (single isomer, unassigned) [Example 56-I]	35
Cc1c(C(O)CN2CCc3nc(-n4ccnc4C)ncc3C2)ccc2c1COC2=O (single isomer, unassigned) [Example 59-I]	13
Cc1c(C(O)CN2CCc3nc(Nc4cccnc4)ncc3C2)ccc2c1COC2=O (single isomer, unassigned) [Example 54-I]	32
Cc1c(C(O)CN2CCc3nc(-n4cnc5ncccc54)ncc3C2)ccc2c1COC2=O (single isomer, unassigned) [Example 53-I]	13
Cc1c(C(O)CN2CCc3nc(-n4ccnc4)ncc3C2)ccc2c1COC2=O (single isomer, unassigned) [Example 66-I]	6

* * *

- target.entity: hROMK (human Kir1.1) (Homo sapiens (Human))
- Sequence (P48048 whole entry): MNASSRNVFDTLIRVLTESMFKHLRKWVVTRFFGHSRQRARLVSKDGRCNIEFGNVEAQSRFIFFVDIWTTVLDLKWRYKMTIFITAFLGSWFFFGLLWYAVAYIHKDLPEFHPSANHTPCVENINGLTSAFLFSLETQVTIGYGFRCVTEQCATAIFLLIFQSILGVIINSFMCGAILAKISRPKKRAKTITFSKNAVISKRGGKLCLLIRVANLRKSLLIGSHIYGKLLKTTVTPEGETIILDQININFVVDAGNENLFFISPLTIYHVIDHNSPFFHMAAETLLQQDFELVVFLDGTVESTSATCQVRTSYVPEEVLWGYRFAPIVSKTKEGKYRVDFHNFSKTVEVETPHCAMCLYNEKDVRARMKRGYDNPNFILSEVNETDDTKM
- measurement.protocol: Thallium Flux Assay
- study.conditions: CHO T-Rex hROMK stable cell line, 10-point concentration response; read-out: hROMK Th+ Flux IC50
Below, each entry is listed alongside its reported IC50.

compound	target.entity	IC50
Cc1c(C(O)CN2CCc3nc(-n4ncc5c(C#N)ccnc54)ncc3C2)ccc2c1COC2=O (single isomer, unassigned) [Example 35-II]	hROMK (human Kir1.1) (Homo sapiens (Human))	4.9 µM
Cc1c(C(O)CN2CCc3nc(-n4ccc5c(C#N)cncc54)ncc3C2)ccc2c1COC2=O (single isomer, unassigned) [Example 42-II]	hROMK (human Kir1.1) (Homo sapiens (Human))	0.21 µM
Cn1c(=O)oc2ccc(C(O)CN3CCc4nc(-n5ncc6c(C#N)cccc65)ncc4C3)cc21 (single isomer, unassigned) [Example 3-I]	hROMK (human Kir1.1) (Homo sapiens (Human))	0.74 µM
Cc1c(C(O)CN2CCc3cc(Nc4ccc(C#N)c(F)c4)ccc3C2)ccc2c1COC2=O (single isomer, unassigned) [Example 32-I]	hROMK (human Kir1.1) (Homo sapiens (Human))	0.05 µM
Cc1c(C(O)CN2CCc3nc(-n4ccc5c(C#N)cncc54)ncc3C2)ccc2c1COC2=O (single isomer, unassigned) [Example 42-I]	hROMK (human Kir1.1) (Homo sapiens (Human))	0.07 µM
Cc1c(CN2CCc3nc(Nc4ccc(C#N)c(F)c4)ncc3C2)ccc2c1COC2=O	hROMK (human Kir1.1) (Homo sapiens (Human))	0.27 µM
